molecular target: fowlpox virus resolvase (Fowlpox virus, UniProt Q9J546); assay: Fluorescence polarization (FP) assay of bulged DNA substrate cleavage by fowlpox resolvase; assay type: biochemical; conditions: compared with compound 1 or with the N-hydroxy parent
Sequence (Q9J546 whole entry): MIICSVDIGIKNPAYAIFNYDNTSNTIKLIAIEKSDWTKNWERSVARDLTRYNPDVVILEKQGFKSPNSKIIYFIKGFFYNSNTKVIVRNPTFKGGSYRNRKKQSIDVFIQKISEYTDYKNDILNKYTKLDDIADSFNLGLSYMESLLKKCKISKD

{"columns": ["Compound", "activity in the FP assay"],
 "data": [
  ["COc1ccc(CCc2cnc3c(c2)c(O)c(-c2ccccc2)c(=O)n3O)cc1 [Compound 4]", "slightly less potent"],
  ["CCOC(=O)c1c(O)c2cc(-c3cccc(OC)n3)cnc2n(OCc2ccccc2)c1=O [Compound 8]", "abolished activity"],
  ["O=c1c(-c2ccccc2)c(O)c2cc(CCc3ccc(C(F)(F)F)cc3)cnc2n1O [Compound 2]", "slightly less potent"],
  ["CCOC(=O)c1c(O)c2cc(/C=C/c3ccc(C(F)(F)F)cc3)cnc2n(OCc2ccccc2)c1=O [Compound 6]", "abolished activity"]
]}

---

assay: Cytotoxicity, CellTiter-Glo Luminescent Cell Viability Assay; conditions: CellTiter-Glo
# Cytotoxicity, LD50 annotations

{"columns": ["Smi", "Cytotoxicity, LD50 / µM"],
 "data": [
  ["O=c1c(-c2ccccc2)c(O)c2cc(-c3cccc(-c4ccccc4)c3)cnc2n1O", 13],
  ["COc1ccc(CCc2cnc3c(c2)c(O)c(-c2ccccc2)c(=O)n3O)cc1", 10],
  ["O=c1c(-c2ccccc2)c(O)c2cc(CCc3ccc(C(F)(F)F)cc3)cnc2n1O", 15],
  ["CCOC(=O)c1c(O)c2cc(-c3cccc(OC)n3)cnc2n(O)c1=O", 156],
  ["CCOC(=O)c1c(O)c2cc(CCc3ccc(C(F)(F)F)cc3)cnc2n(O)c1=O", 20]
]}

---

Reported IC50 values, fowlpox virus resolvase (Fowlpox virus).

{"columns": ["Smi", "Assayed target", "IC50"],
 "data": [
  ["CCOC(=O)c1c(O)c2cc(-c3cccc(OC)n3)cnc2n(OCc2ccccc2)c1=O", "fowlpox virus resolvase (Fowlpox virus)", "> 250 µM"],
  ["CCOC(=O)c1c(O)c2cc(/C=C/c3ccc(C(F)(F)F)cc3)cnc2n(OCc2ccccc2)c1=O", "fowlpox virus resolvase (Fowlpox virus)", "> 250 µM"],
  ["O=c1c(-c2ccccc2)c(O)c2cc(/C=C/c3ccc(C(F)(F)F)cc3)cnc2n1OCc1ccccc1", "fowlpox virus resolvase (Fowlpox virus)", "> 250 µM"]
]}
